assayed-system: Inosine-5'-monophosphate dehydrogenase 1 (Homo sapiens, UniProt P20839)
Sequence (P20839 whole entry): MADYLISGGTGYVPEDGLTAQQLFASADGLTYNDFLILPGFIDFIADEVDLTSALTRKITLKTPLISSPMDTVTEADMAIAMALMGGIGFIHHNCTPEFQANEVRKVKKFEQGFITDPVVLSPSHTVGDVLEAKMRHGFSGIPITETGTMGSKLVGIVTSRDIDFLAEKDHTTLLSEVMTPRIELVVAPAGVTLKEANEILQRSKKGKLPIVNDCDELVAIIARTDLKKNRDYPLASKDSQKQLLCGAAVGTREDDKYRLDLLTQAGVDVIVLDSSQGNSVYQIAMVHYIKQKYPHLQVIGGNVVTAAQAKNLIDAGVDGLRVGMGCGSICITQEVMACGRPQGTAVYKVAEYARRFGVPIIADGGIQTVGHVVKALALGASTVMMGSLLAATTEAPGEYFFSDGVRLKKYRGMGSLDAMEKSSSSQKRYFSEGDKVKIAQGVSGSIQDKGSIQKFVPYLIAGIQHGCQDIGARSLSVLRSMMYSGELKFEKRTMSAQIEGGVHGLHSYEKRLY
procedure-details: The compound was tested for the inhibition towards […] (Nicotinamide adenine dinucleotide) substrate of Inosine-5'-monophosphate dehydrogenase 1
measured-endpoint: Ki (nM)
# value in nM; strip the unit string

Use these answered entries as a reference point.
chemical_string=NC(=O)c1c[se]c([C@@H]2O[C@H](COP(=O)(O)OP(=O)(O)OC[C@H]3O[C@@H](n4cnc5c(N)ncnc54)[C@H](O)[C@@H]3O)[C@@H](O)[C@H]2O)c1 measured_endpoint=Ki units_text=nM readout_number=260
chemical_string=NC(=O)c1coc([C@@H]2O[C@H](COP(=O)(O)OP(=O)(O)OC[C@H]3O[C@@H](n4cnc5c(N)ncnc54)[C@H](O)[C@@H]3O)[C@@H](O)[C@H]2O)c1 measured_endpoint=Ki units_text=nM readout_number=135000
chemical_string=NC(=O)c1csc([C@@H]2O[C@H](COP(=O)(O)OP(=O)(O)OC[C@H]3O[C@@H](n4cnc5c(N)ncnc54)[C@H](O)[C@@H]3O)[C@@H](O)[C@H]2O)c1 measured_endpoint=Ki units_text=nM readout_number=340

*Q* Please list Ki recorded for the molecule `NC(=O)c1c[se]c([C@@H]2O[C@H](COP(=O)(O)OP(=O)(O)OC[C@H]3O[C@@H](n4cnc5c(N)ncnc54)[C@H](O)[C@@H]3O)[C@@H](O)[C@H]2O)n1`
*A* 62
